Sourced from patent US20250304630A1

procedure details: Osmotic stress assay: keratinocytes pretreated, exposed to hypertonic NaCl media, viability by MTT
Assay type: cell-based, human
study conditions: human, human adult epidermal keratinocytes; 24 h pretreatment with 25 mM Sorbitol, then 24 h with 0 mM added NaCl; MTT; % of untreated 0 mM NaCl control; mean +/- SD; read-out: Cell Viability
readout name: viability at 24 h, 25 mM (%)
Quick reminder: number only, in %, skip the unit.

Would you kindly share the measured viability at 24 h, 25 mM for OC[C@@H](O)[C@@H](O)[C@H](O)[C@@H](O)CO [Sorbitol, sorbitol, reference compound] ?
122
